# Test system: 997726-040-R-J2-PDC tumor spheroids, viability;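 also: spheroids exposed to compounds for seven days before readout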
# experiment-notes: Anticancer human tumor 997726-040-R-J2-PDC patient-derived squamous cell lung carcinoma cell line growth inhibition [PI3K]
# particulars: second compound 1 µM; first compound 0.316 µM; stronger effect = lower value; spheroids with HUVEC and MSC
Mark met only when viability, T/C stays strictly below 20%. Values equal to the cut-off are not met.

compound="CNC(=O)c1ccc(N2C(=S)N(c3ccc(C#N)c(C(F)(F)F)c3)C(=O)C2(C)C)cc1F + CC(Nc1ncnc2nc[nH]c12)c1cc2cccc(Cl)c2c(=O)n1-c1ccccc1" assigned_class="not met"
compound="CC1(C)CCC(Nc2ncc(C(F)(F)F)c(-c3c[nH]c4c(P(C)(C)=O)c(C#N)ccc34)n2)CN1 (stereo unspecified) + CC(Nc1ncnc2nc[nH]c12)c1cc2cccc(Cl)c2c(=O)n1-c1ccccc1" assigned_class="not met"
compound="CC1(C)CCC(CN2CCN(c3ccc(C(=O)NS(=O)(=O)c4ccc(NCC5CCOCC5)c([N+](=O)[O-])c4)c(Oc4cnc5[nH]ccc5c4)c3)CC2)=C(c2ccc(Cl)cc2)C1 + COc1c(OCCCN2CCOCC2)ccc2c3n(c(=NC(=O)c4cnc(N)nc4)nc12)CCN3" assigned_class=met
compound="CCCS(=O)(=O)Nc1ccc(F)c(C(=O)c2c[nH]c3ncc(-c4ccc(Cl)cc4)cc23)c1F + CC(Nc1ncnc2nc[nH]c12)c1cc2cccc(Cl)c2c(=O)n1-c1ccccc1" assigned_class="not met"
compound="CC(C)NCC(C(=O)N1CCN(c2ncnc3c2C(C)CC3O)CC1)c1ccc(Cl)cc1 (stereo unspecified) + CC(Nc1ccc2c(c1)OCCn1cc(N3C(=O)OCC3C(F)F)nc1-2)C(N)=O" assigned_class="not met"
compound="C#Cc1c(F)ccc2cc(O)cc(-c3ncc4c(N5CC6CCC(C5)N6)nc(OCC56CCCN5CC(F)C6)nc4c3F)c12 (stereo unspecified) + CC(Nc1ccc2c(c1)OCCn1cc(N3C(=O)OCC3C(F)F)nc1-2)C(N)=O" assigned_class="not met"
compound="CCCS(=O)(=O)Nc1ccc(F)c(C(=O)c2c[nH]c3ncc(-c4ccc(Cl)cc4)cc23)c1F + Cc1nc(NC(=O)N2CCCC2C(N)=O)sc1-c1ccnc(C(C)(C)C(F)(F)F)c1" assigned_class="not met"
compound="CC1(C)CCC(CN2CCN(c3ccc(C(=O)NS(=O)(=O)c4ccc(NCC5CCOCC5)c([N+](=O)[O-])c4)c(Oc4cnc5[nH]ccc5c4)c3)CC2)=C(c2ccc(Cl)cc2)C1 + CC(Nc1ncnc2nc[nH]c12)c1cc2cccc(Cl)c2c(=O)n1-c1ccccc1" assigned_class="not met"
compound="Cn1ncc(Cl)c1-c1cc(C(=O)NC(CN)Cc2cccc(F)c2)sc1Cl (stereo unspecified) + CC(Nc1ccc2c(c1)OCCn1cc(N3C(=O)OCC3C(F)F)nc1-2)C(N)=O" assigned_class=met
compound="CC1(C)CCC(CN2CCN(c3ccc(C(=O)NS(=O)(=O)c4ccc(NCC5CCOCC5)c([N+](=O)[O-])c4)c(Oc4cnc5[nH]ccc5c4)c3)CC2)=C(c2ccc(Cl)cc2)C1 + CC(Nc1ccc2c(c1)OCCn1cc(N3C(=O)OCC3C(F)F)nc1-2)C(N)=O" assigned_class="not met"
compound="C#Cc1c(F)ccc2cc(O)cc(-c3ncc4c(N5CC6CCC(C5)N6)nc(OCC56CCCN5CC(F)C6)nc4c3F)c12 (stereo unspecified) + COc1c(OCCCN2CCOCC2)ccc2c3n(c(=NC(=O)c4cnc(N)nc4)nc12)CCN3" assigned_class=met
